Ref: ChEMBL document CHEMBL1139987

The following compounds are shown together with reported IC50 values.
- tested.target: UniProtKB P08069
- Sequence (P08069 31-736 limits assumed): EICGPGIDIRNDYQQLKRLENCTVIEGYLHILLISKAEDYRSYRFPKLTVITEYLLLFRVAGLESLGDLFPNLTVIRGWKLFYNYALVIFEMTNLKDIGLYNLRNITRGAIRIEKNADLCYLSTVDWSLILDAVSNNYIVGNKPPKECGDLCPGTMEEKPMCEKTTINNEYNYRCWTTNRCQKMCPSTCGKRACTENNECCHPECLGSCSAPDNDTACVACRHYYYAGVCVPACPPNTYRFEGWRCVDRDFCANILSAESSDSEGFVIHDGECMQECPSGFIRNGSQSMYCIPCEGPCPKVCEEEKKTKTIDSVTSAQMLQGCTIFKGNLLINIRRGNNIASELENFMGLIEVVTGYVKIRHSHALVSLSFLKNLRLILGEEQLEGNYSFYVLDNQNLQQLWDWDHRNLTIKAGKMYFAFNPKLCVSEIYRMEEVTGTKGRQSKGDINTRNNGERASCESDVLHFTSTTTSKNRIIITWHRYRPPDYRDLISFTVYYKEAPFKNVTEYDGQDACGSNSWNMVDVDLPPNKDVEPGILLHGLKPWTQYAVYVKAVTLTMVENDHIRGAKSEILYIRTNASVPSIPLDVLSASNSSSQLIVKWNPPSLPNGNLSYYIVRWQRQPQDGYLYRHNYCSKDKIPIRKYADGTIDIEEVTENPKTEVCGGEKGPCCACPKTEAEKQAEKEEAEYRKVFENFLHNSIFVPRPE
- Sequence (P08069 741-1367 limits assumed): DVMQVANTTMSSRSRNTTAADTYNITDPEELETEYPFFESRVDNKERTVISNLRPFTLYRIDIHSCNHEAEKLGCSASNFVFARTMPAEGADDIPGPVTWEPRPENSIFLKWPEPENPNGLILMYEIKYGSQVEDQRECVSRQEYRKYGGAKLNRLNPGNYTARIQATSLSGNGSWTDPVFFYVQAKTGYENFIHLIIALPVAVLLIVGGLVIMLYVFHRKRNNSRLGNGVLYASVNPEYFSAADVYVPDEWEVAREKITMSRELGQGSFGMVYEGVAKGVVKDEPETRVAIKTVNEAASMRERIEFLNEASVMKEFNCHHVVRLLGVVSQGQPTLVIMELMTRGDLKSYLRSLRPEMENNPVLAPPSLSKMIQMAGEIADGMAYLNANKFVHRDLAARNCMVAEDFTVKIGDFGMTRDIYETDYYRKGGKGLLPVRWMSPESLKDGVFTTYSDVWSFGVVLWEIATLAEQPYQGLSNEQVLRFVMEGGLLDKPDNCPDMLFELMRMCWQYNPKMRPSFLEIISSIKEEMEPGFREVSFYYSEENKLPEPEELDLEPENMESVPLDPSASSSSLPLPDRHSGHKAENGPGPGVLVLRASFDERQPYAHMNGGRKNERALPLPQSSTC
endpoint: IC50 (nM)

compound	value.unit	reported.value
Cc1ccc(CCCCc2ccc(O)c(O)c2)cc1	nM	800
Oc1ccc(CCCCc2ccc(Cl)cc2)cc1O	nM	800
Oc1ccc(CCCCc2ccc(Cl)c(Cl)c2)cc1O	nM	1000
Oc1ccc(CCCCc2ccc(O)c(O)c2)cc1	nM	1000
Oc1cc2c(cc1O)C(c1ccccc1)CCC2 (stereo not given)	nM	1000

###

Recorded IC50 for the following compounds
- System: MCF7
- measurement.description: Inhibition of IGF1 mediated cell growth in MCF7 cells
- condition: Homo sapiens
endpoint: IC50 (µM)

chem.smiles	endpoint	reported.value
COc1ccc(CCCCc2ccc(O)c(O)c2)cc1	IC50	15.7
Oc1ccc(CCCCc2ccc(O)c(O)c2)cc1O	IC50	25.4
Oc1ccc(CCCCc2ccc(Cl)cc2)cc1O	IC50	13.4

###

- tested.target: Polyunsaturated fatty acid lipoxygenase ALOX15 (Homo sapiens, UniProt P16050)
- Sequence (P16050 whole entry): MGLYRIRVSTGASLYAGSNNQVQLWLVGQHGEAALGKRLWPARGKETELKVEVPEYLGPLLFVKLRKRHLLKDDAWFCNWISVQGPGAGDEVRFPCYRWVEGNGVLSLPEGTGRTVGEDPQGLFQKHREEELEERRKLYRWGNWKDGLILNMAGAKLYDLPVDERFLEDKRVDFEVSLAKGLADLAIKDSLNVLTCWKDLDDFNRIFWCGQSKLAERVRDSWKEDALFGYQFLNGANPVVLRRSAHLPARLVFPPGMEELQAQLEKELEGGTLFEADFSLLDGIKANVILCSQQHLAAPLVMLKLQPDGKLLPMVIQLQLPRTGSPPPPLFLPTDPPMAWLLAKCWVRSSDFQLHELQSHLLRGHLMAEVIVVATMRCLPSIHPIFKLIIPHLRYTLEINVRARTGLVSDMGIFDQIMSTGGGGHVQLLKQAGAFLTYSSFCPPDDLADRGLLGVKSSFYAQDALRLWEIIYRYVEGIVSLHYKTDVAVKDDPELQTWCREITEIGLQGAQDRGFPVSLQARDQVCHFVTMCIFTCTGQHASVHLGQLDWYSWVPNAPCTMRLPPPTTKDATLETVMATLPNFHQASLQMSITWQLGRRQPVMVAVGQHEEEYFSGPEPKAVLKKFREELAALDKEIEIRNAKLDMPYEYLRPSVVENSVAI

chem.smiles	tested.target	IC50 (µM)
Oc1ccc(CCCCc2ccccc2)cc1O	Polyunsaturated fatty acid lipoxygenase ALOX15 (Homo sapiens, UniProt P16050)	7.3

###

- Test system: MCF7
- measurement.description: Inhibition of IGF1 mediated cell growth in MCF7 cells
- condition: Homo sapiens
Response field label: string, one of Yes (IC50 strictly below 20 µM) or No.

compound	class.assignment
CC(Cc1ccc(O)c(O)c1)C(C)Cc1ccc(O)c(O)c1 (stereo unspecified) [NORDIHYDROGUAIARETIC ACID]	No
Oc1cc2c(cc1O)C(c1ccccc1)CCC2 (stereo unspecified)	Yes
Oc1ccc(CCCCc2ccccc2)cc1O	Yes
Cc1ccc(CCCCc2ccc(O)c(O)c2)cc1	Yes
Oc1ccc(CCCCc2ccc(Cl)c(Cl)c2)cc1O	No
Oc1ccc(CCCCc2ccc(O)c(O)c2)cc1	No
